This collection of values is drawn from patent US20160185837A1.

target-system: T1, human GIP receptor (human, UniProt P48546 22-466)
T1 sequence (looked up): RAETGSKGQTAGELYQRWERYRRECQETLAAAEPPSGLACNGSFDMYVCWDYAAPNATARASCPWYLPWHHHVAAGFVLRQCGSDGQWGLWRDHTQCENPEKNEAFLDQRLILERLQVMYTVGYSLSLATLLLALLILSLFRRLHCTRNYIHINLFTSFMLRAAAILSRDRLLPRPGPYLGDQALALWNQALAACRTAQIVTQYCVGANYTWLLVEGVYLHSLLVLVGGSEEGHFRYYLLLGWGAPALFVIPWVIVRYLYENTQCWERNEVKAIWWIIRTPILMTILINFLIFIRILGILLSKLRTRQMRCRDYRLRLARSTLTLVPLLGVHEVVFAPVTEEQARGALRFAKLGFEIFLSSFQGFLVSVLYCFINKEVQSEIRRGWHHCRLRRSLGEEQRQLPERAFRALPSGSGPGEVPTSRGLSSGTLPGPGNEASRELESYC
assay-protocol: cell-based or functional assay
Exercise: for every item that follows, state its recorded cAMP EC50.
Numbers only, in pM.

Worked set:
# binder, cAMP EC50 / pM
records = [
    ("IP374 (Fc fusion) YSEGTFTSLYSKLLEEEAVRLFIEWLLAGGGGGGSGGGGSGGGGSGGGGSATHTCPPC", 200),
    ("IP323 (Fc fusion) YSEGTFTSDYSKLLEEEAVRLFIEWLVKGPGGGGGSGGGGSGGGGSGGGGSGGGGSGGGGSA", 17),
    ("IP274 (Fc fusion) YSEGTFTSDYSKLLEKEAVRLFIEWLLKGPGGGGGSGGGGSGGGGSGGGGSATHTCPPC", 17),
]

Would you mind giving cAMP EC50 for every binder in the list below?
1. IP213 (Fc fusion) YSEGTFTSDYSKLLEEEAVRLFIEWLLAGGAAAGGSGSTASSGSGSATGGGGAATHTCPPCPAPEF
2. IP296 (Fc fusion) YSEGTFTSDYSKLLEEEAVRCFIEWLVKGGPSSGAPPCSGGGGGGGGGGGGGGGGGGGGGGGGACPPC

A:
1: 5.9; 2: 18
